Values compiled from paper PMC6100259.

# SYSTEM_UNDER_TEST: Aβ40 peptide (Homo sapiens)
# Construct: we preferred using Aβ40 peptide
# Sequence (P05067 672-711 limits assumed): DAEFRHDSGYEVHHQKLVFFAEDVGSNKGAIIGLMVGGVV
# ASSAY_PROTOCOL: Inhibition of Aβ40 aggregation, ThT fluorescence-based method
# Format: biochemical
# CONDITION_INFO: Aβ40 aggregation inhibition; read-out: pIC50, Aβ antiaggregating potency (converted)

| COMPOUND | IC50 |
| --- | --- |
| COc1ccc2c(c1)/C(=N/Nc1nc(-c3ccccc3)cs1)C(=O)N2 [Compound 15] | 1.2 µM |
| COc1ccc2c(c1)/C(=N/Nc1nc(-c3cccc(O)c3)cs1)C(=O)N2 [Compound 16] | 15.8 µM |
| COc1ccc2c(c1)/C(=N/Nc1nc(CCl)cs1)C(=O)N2 [Compound 13] | 12.9 µM |
| COc1cccc(-c2csc(N/N=C3\C(=O)Nc4ccc(OC)cc43)n2)c1 [Compound 17] | 33.9 µM |
